Data provenance is paper PMC4317638.

Items are presented alongside their recorded IC50.
# assay-summary: in vitro
# setup-conditions: human, Cytotoxicity IC50
Where a name gives a salt, the structure may show the parent alone.

Examples with answers:
| compound | IC50 |
| --- | --- |
| CCN(CCCc1ccccc1)CCCc1ccccc1 [Alverine Citrate] | > 500 µM |
| O=C(CCN1CCN2CCCC2C1)N1c2ccccc2Sc2ccc(Cl)cc21 (stereo not shown) | > 500 µM |

Ask | Look up IC50: COc1cccc2c1C(=O)c1c(O)c3c(c(O)c1C2=O)C[C@@](O)(C(C)=O)C[C@@H]3O[C@H]1C[C@H](N)[C@H](O)[C@H](C)O1
Reply | > 500 µM

Ask | Also CCCSc1ccc2nc(NC(=O)OC)[nH]c2c1 , if possible.
Reply | > 500 µM

###

# Tested on: Ebola VLP entry into HeLa cells
# assay-summary: microbe, parasite or virus in culture
# Type: cell-based, Ebola virus
# setup-conditions: Zaire ebolavirus, HeLa, read-out: Block Ebola VLP entry Max. Inh.
readout-kind: Emax (%)
Number only, in %; omit the unit.

Ask | Look up Emax: CO[C@@H]1[C@@H](OC)[C@H](C)[C@@](O)(CC(=O)O)O[C@H]1[C@H](C)[C@H]1O[C@@]2(CC[C@@](C)([C@H]3CC[C@@](C)([C@@H]4O[C@@H]([C@H]5O[C@](C)(O)[C@H](C)C[C@@H]5C)C[C@@H]4O[C@@H]4C[C@H](OC)[C@@H](OC)[C@H](C)O4)O3)O2)C[C@H](O)[C@H]1C
Reply | 104

Ask | Also Cc1cn(-c2cc(NC(=O)c3ccc(C)c(Nc4nccc(-c5cccnc5)n4)c3)cc(C(F)(F)F)c2)cn1 , if possible.
Reply | 100

###

Items are presented alongside their recorded IC50.
# assay-summary: in vitro
# setup-conditions: human, Cytotoxicity IC50

Examples with answers:
| cpd-smiles | readout-kind | assay-value |
| --- | --- | --- |
| CCN(CC)CCOc1ccc(C(=C(Cl)c2ccccc2)c2ccccc2)cc1 | IC50 | 91.4 µM |
| CC/C(=C(\c1ccccc1)c1ccc(OCCN(C)C)cc1)c1ccccc1 | IC50 | 99.8 µM |
| CO[C@@H]1[C@@H](OC)[C@H](C)[C@@](O)(CC(=O)O)O[C@H]1[C@H](C)[C@H]1O[C@@]2(CC[C@@](C)([C@H]3CC[C@@](C)([C@@H]4O[C@@H]([C@H]5O[C@](C)(O)[C@H](C)C[C@@H]5C)C[C@@H]4O[C@@H]4C[C@H](OC)[C@@H](OC)[C@H](C)O4)O3)O2)C[C@H](O)[C@H]1C | IC50 | 24.3 µM |
| O=C(c1ccc(OCCN2CCCCC2)cc1)c1c(-c2ccc(O)cc2)sc2cc(O)ccc12 | IC50 | > 500 µM |
| CN(C)CCCN1c2ccccc2CCc2ccccc21 | IC50 | > 500 µM |

Read the next record carefully.
Ask | Look up IC50: CC[C@]1(O)C[C@H]2CN(CCc3c([nH]c4ccccc34)[C@@](C(=O)OC)(c3cc4c(cc3OC)N(C=O)[C@H]3[C@@](O)(C(=O)OC)[C@H](OC(C)=O)[C@]5(CC)C=CCN6CC[C@]43[C@@H]65)C2)C1
Reply | > 500 µM

###

# System: Ebola VLP entry into HeLa cells
# assay-summary: microbe, parasite or virus in culture
# Type: cell-based, Ebola virus
# setup-conditions: Zaire ebolavirus, HeLa, read-out: Block Ebola VLP entry IC50
readout-kind: IC50 (µM)
Number only, in µM; omit the unit.

Examples with answers:
| molecule | display-unit | IC50 |
| --- | --- | --- |
| CCN(CC)CCOc1ccc2c(c1)C(=O)c1cc(OCCN(CC)CC)ccc1-2 | µM | 3.43 |
| CCN(CC)CCNC(=O)c1c(C)[nH]c(/C=C2\C(=O)Nc3ccc(F)cc32)c1C | µM | 1.91 |
| CCCCc1oc2ccc(NS(C)(=O)=O)cc2c1C(=O)c1ccc(OCCCN(CCCC)CCCC)cc1 | µM | 2.2 |
| CC[C@@H]([C@H](C)O)n1ncn(-c2ccc(N3CCN(c4ccc(OC[C@@H]5CO[C@@](Cn6cncn6)(c6ccc(F)cc6F)C5)cc4)CC3)cc2)c1=O | µM | 7.69 |

Ask | Ebola VLP entry into HeLa cells / IC50 / CC[C@]1(O)C[C@H]2CN(CCc3c([nH]c4ccccc34)[C@@](C(=O)OC)(c3cc4c(cc3OC)N(C=O)[C@H]3[C@@](O)(C(=O)OC)[C@H](OC(C)=O)[C@]5(CC)C=CCN6CC[C@]43[C@@H]65)C2)C1 : value?
Reply | 0.141

Ask | Also C[C@H]1O[C@@H](O[C@H]2CC[C@@]3(C)[C@H](CC[C@@H]4[C@@H]3C[C@@H](O)[C@]3(C)[C@@H](C5=CC(=O)OC5)CC[C@]43O)C2)C[C@H](O)[C@@H]1O[C@H]1C[C@H](O)[C@H](O[C@H]2C[C@H](O)[C@H](O[C@@H]3O[C@H](CO)[C@@H](O)[C@H](O)[C@H]3O)[C@@H](C)O2)[C@@H](C)O1 [Deslanoside] , if possible.
Reply | 0.485

Ask | Also Cc1cn(-c2cc(NC(=O)c3ccc(C)c(Nc4nccc(-c5cccnc5)n4)c3)cc(C(F)(F)F)c2)cn1 , if possible.
Reply | 24.3

###

Items are presented alongside their recorded Emax.
# System: Ebola VLP entry into HeLa cells
# assay-summary: microbe, parasite or virus in culture
# Format: cell-based, Ebola virus
# setup-conditions: Zaire ebolavirus, HeLa, read-out: Block Ebola VLP entry Max. Inh.
Number only, in %; omit the unit.

Examples with answers:
| cpd-smiles | display-unit | Emax |
| --- | --- | --- |
| COc1ccc2cc1Oc1ccc(cc1)C[C@H]1c3c(cc4c(c3Oc3cc5c(cc3OC)CCN(C)[C@@H]5C2)OCO4)CCN1C | % | 112 |
| CCCOc1ccc2nc(NC(=O)OC)[nH]c2c1 | % | 57 |
| CCCSc1ccc2nc(NC(=O)OC)[nH]c2c1 | % | 76 |
| COc1cc(Nc2c(C#N)cnc3cc(OCCCN4CCN(C)CC4)c(OC)cc23)c(Cl)cc1Cl | % | 101 |
| CN(C)CCOc1ccc(/C(=C(/CCCl)c2ccccc2)c2ccccc2)cc1 | % | 98 |

Ask | Look up Emax: CC[C@]1(O)C[C@@H]2CN(CCc3c([nH]c4ccccc34)[C@@](C(=O)OC)(c3cc4c(cc3OC)N(C)[C@H]3[C@@](O)(C(=O)OC)[C@H](OC(C)=O)[C@]5(CC)C=CCN6CC[C@]43[C@@H]65)C2)C1
Reply | 87

Ask | Also COCC(=O)O[C@]1(CCN(C)CCCc2nc3ccccc3[nH]2)CCc2cc(F)ccc2[C@@H]1C(C)C , if possible.
Reply | 96

###

# Test system: HeLa cells
pIC50: −log10 of the molar value.
readout-kind: pIC50

Ask | HeLa cells / pIC50 / N=C(N)NN=C(/C=C/c1ccc([N+](=O)[O-])o1)/C=C/c1ccc([N+](=O)[O-])o1 [Nitrovin] : value?
Reply | < 3.30

###

# assay-summary: in vitro
# setup-conditions: human, Cytotoxicity IC50
Items are presented alongside their recorded IC50.
Number only, in µM; omit the unit.

Examples with answers:
| compound | display-unit | assay-value |
| --- | --- | --- |
| CCN(CC)CCNC(=O)c1c(C)[nH]c(/C=C2\C(=O)Nc3ccc(F)cc32)c1C | µM | 148 |
| CN(C)CCOc1ccc(/C(=C(/CCCl)c2ccccc2)c2ccccc2)cc1 | µM | 180 |
| CNCCCC12CCC(c3ccccc31)c1ccccc12 | µM | 146 |
| COCC(=O)O[C@]1(CCN(C)CCCc2nc3ccccc3[nH]2)CCc2cc(F)ccc2[C@@H]1C(C)C | µM | 43.2 |
| Cc1cn(-c2cc(NC(=O)c3ccc(C)c(Nc4nccc(-c5cccnc5)n4)c3)cc(C(F)(F)F)c2)cn1 | µM | 50.1 |

Ask | Look up IC50: CN1CCN(CC/C=C2/c3ccccc3Sc3ccc(S(=O)(=O)N(C)C)cc32)CC1
Reply | 70.1

Ask | Also CN(C)CCCN1c2ccccc2CCc2ccc(Cl)cc21 , if possible.
Reply | 64.1

Ask | Also Cc1ccc(C(=O)Oc2ccc(C(O)CNC(C)(C)C)cc2OC(=O)c2ccc(C)cc2)cc1 (stereo not shown) , if possible.
Reply | 250

Ask | Also OC(c1cc(C(F)(F)F)nc2c(C(F)(F)F)cccc12)C1CCCCN1 (stereo not shown) , if possible.
Reply | 43.2

###

# System: Ebola VLP entry into HeLa cells
# assay-summary: microbe, parasite or virus in culture
# Assay type: cell-based, Ebola virus
# setup-conditions: Zaire ebolavirus, HeLa, read-out: Block Ebola VLP entry IC50
readout-kind: IC50 (µM)
Number only, in µM; omit the unit.

Examples with answers:
| compound | display-unit | assay-value |
| --- | --- | --- |
| Cc1ccc(C(=O)Oc2ccc(C(O)CNC(C)(C)C)cc2OC(=O)c2ccc(C)cc2)cc1 (centres unmarked) [Bitolterol] | µM | 6.11 |
| CC(=O)c1ccc2c(c1)N(CCCN1CCC(CCO)CC1)c1ccccc1S2 [Piperacetazine] | µM | 9.68 |
| CCN(CC)CCCN(c1ccccc1)C1Cc2ccccc2C1 [Aprindine] | µM | 7.69 |
| CN1CCN(CCCN2c3ccccc3Sc3ccc(S(=O)(=O)N(C)C)cc32)CC1 [Thioproperazine] | µM | 4.32 |

Read the next record carefully.
Ask | Look up IC50: O=C(Nc1ccc([N+](=O)[O-])cc1Cl)c1cc(Cl)ccc1O [Niclosamide]
Reply | 2.66
